# pKi per entry for human dopamine D3 receptor (Homo sapiens, UniProt P35462)
API: returns pKi as number; meaning -log10 of concentration in mol/L.

Challenge: Form field: reported pKi of "COCCC(=O)N[C@H]1CC[C@H](CCN2CCN(c3noc4ccc(C)cc34)CC2)CC1"
Response given: 8.59

Challenge: Then what about the molecule "O=C(CC1COC1)N[C@H]1CC[C@H](CCN2CCN(c3noc4cc(Cl)ccc34)CC2)CC1" ?
Response given: 8.09

Challenge: Then what about the molecule Cc1cc2c(N3CCN(CC[C@H]4CC[C@H](NC(=O)CC5CCCO5)CC4)CC3)noc2cc1F (stereo partly shown) ?
Response given: 7.66

Challenge: Then what about the molecule "CC(=O)N[C@H]1CC[C@H](CCN2CCN(c3noc4ccccc34)CC2)CC1" ?
Response given: 8.05

###

# Ki per entry for human dopamine D3 receptor (Homo sapiens, UniProt P35462)
State the answer as a number, implicitly in nM.

Challenge: Form field: reported Ki of "CSCCC(=O)N[C@H]1CC[C@H](CCN2CCN(c3noc4cc(F)c(Cl)cc34)CC2)CC1"
Response given: 4.38

Challenge: Then what about the compound "O=C(N[C@H]1CC[C@H](CCN2CCN(c3noc4cc(Cl)ccc34)CC2)CC1)C1CCOCC1" ?
Response given: 15.9

Challenge: Then what about the compound "COC(=O)N[C@H]1CC[C@H](CCN2CCN(c3noc4cc(F)c(Cl)cc34)CC2)CC1" ?
Response given: 0.58

Challenge: Then what about the compound CC1(C)CC(CC(=O)N[C@H]2CC[C@H](CCN3CCN(c4noc5ccc(F)cc45)CC3)CC2)CCO1 (mixture of isomers) ?
Response given: 12.1

###

# Ki per entry for human dopamine D3 receptor (Homo sapiens)
State the answer as a number, implicitly in nM.

Challenge: Form field: reported Ki of "O=C(C[C@H]1CC[C@H](O)CC1)N[C@H]1CC[C@H](CCN2CCN(c3noc4cc(Cl)ccc34)CC2)CC1"
Response given: 12.5

Challenge: Then what about the compound "O=C(CC1OCCCO1)N[C@H]1CC[C@H](CCN2CCN(c3noc4ccc(F)cc34)CC2)CC1" ?
Response given: 4.55

Challenge: Then what about the compound "COC(CC(=O)N[C@H]1CC[C@H](CCN2CCN(c3noc4ccc(F)cc34)CC2)CC1)OC" ?
Response given: 2.12

Challenge: Then what about the compound "CCC(=O)N[C@H]1CC[C@H](CCN2CCN(c3noc4cc(C)ccc34)CC2)CC1" ?
Response given: 5.8

###

Could you please report measured pKi for the items listed next?
target: human dopamine D2 receptor (Homo sapiens, UniProt P14416); construct: membrane preparation; experiment: Radioligand binding ([3H]-spiperone) to membranes of HEK-293 EBNA cells expressing human D2 receptor; conditions: human D2, 0.7 nM [3H]-spiperone, HEK-293 EBNA membranes, 1 h at RT
Sequence (P14416 whole entry): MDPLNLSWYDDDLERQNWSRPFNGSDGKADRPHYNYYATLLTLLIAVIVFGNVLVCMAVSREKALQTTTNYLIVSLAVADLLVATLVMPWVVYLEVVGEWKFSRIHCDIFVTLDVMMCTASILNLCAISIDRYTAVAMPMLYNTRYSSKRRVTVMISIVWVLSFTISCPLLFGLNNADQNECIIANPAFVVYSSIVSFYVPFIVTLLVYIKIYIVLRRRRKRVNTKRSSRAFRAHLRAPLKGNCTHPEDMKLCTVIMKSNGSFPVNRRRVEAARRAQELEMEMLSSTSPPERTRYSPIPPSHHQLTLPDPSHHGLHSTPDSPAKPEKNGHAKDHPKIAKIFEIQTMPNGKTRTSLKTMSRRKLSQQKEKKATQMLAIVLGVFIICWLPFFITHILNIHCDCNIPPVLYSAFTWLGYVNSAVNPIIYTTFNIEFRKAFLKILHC
API: returns pKi as number; meaning -log10 of concentration in mol/L.

Challenge: Form field: reported pKi of "COCC(=O)N[C@H]1CC[C@H](CCN2CCN(c3noc4cc(F)c(C)cc34)CC2)CC1"
Response given: 6.17

Challenge: Then what about the compound "COCCC(=O)N[C@H]1CC[C@H](CCN2CCN(c3noc4cc(Cl)c(F)cc34)CC2)CC1" ?
Response given: 5.84

Challenge: Then what about the compound "CC1(C)C[C@@H](CC(=O)N[C@H]2CC[C@H](CCN3CCN(c4noc5ccc(F)cc45)CC3)CC2)CCO1" ?
Response given: 5.99

Challenge: Then what about the compound "COC1CCN(CC(=O)N[C@H]2CC[C@H](CCN3CCN(c4noc5ccc(F)cc45)CC3)CC2)CC1" ?
Response given: 6.30

Challenge: Then what about the compound "CC(=O)N[C@H]1CC[C@H](CCN2CCN(c3noc4cc(Cl)ccc34)CC2)CC1" ?
Response given: 6.17

Challenge: Then what about the compound "CCOCC(=O)N[C@H]1CC[C@H](CCN2CCN(c3noc4ccc(F)cc34)CC2)CC1" ?
Response given: 5.86

Challenge: Then what about the compound "COC(CC(=O)N[C@H]1CC[C@H](CCN2CCN(c3noc4ccc(F)cc34)CC2)CC1)OC" ?
Response given: 6.12

Challenge: Then what about the compound "CO[C@H]1CC[C@H](CC(=O)N[C@H]2CC[C@H](CCN3CCN(c4noc5cc(Cl)ccc45)CC3)CC2)CC1" ?
Response given: 5.30

Challenge: Then what about the compound "COCCC(=O)N[C@H]1CC[C@H](CCN2CCN(c3noc4cc(F)c(Cl)cc34)CC2)CC1" ?
Response given: 6.59

Challenge: Then what about the compound COC1CCCC(C(=O)N[C@H]2CC[C@H](CCN3CCN(c4noc5ccc(F)cc45)CC3)CC2)C1 (stereo partly drawn) ?
Response given: 5.84

Challenge: Then what about the compound "COC(CC(=O)N[C@H]1CC[C@H](CCN2CCN(c3noc4cc(Cl)ccc34)CC2)CC1)OC" ?
Response given: 6.40

Challenge: Then what about the compound "O=C(N[C@H]1CC[C@H](CCN2CCN(c3noc4cc(Cl)c(Cl)cc34)CC2)CC1)C1CCOCC1" ?
Response given: 5.10

Challenge: Then what about the compound "O=C(CC1OCCCO1)N[C@H]1CC[C@H](CCN2CCN(c3noc4cc(F)c(Cl)cc34)CC2)CC1" ?
Response given: 5.64

Challenge: Then what about the compound "O=C(CO)N[C@H]1CC[C@H](CCN2CCN(c3noc4cc(Cl)ccc34)CC2)CC1" ?
Response given: 6.09

Challenge: Then what about the compound "Cc1cc2c(N3CCN(CC[C@H]4CC[C@H](NC(=O)CC5CC5)CC4)CC3)noc2cc1F" ?
Response given: 5.00

Challenge: Then what about the compound "CCC(=O)N[C@H]1CC[C@H](CCN2CCN(c3noc4cc(Cl)ccc34)CC2)CC1" ?
Response given: 6.17

Challenge: Then what about the compound COC(C)C(=O)N[C@H]1CC[C@H](CCN2CCN(c3noc4cc(F)c(C)cc34)CC2)CC1 (stereo partly drawn) ?
Response given: 5.64

Challenge: Then what about the compound CO[C@H]1CC[C@H](CC(=O)N[C@H]2CC[C@H](CCN3CCN(c4noc5cc(Cl)ccc45)CC3)CC2)C1 (relative stereo) ?
Response given: 6.17

Challenge: Then what about the compound Cc1ccc2c(N3CCN(CC[C@H]4CC[C@H](NC(=O)CC5COCCO5)CC4)CC3)noc2c1 (stereo partly drawn) ?
Response given: 6.48

Challenge: Then what about the compound "CCC(=O)N[C@H]1CC[C@H](CCN2CCN(c3noc4cc(Cl)c(F)cc34)CC2)CC1" ?
Response given: 6.07

Challenge: Then what about the compound "CO[C@H]1CC[C@H](CC(=O)N[C@H]2CC[C@H](CCN3CCN(c4noc5cc(Cl)c(Cl)cc45)CC3)CC2)CC1" ?
Response given: 4.94

Challenge: Then what about the compound CC(C)OC1CCC(CC(=O)N[C@H]2CC[C@H](CCN3CCN(c4noc5cc(Cl)ccc45)CC3)CC2)CC1 (mixture of isomers) ?
Response given: 5.52

Challenge: Then what about the compound "O=C(C[C@H]1CC[C@H](O)CC1)N[C@H]1CC[C@H](CCN2CCN(c3noc4cc(Cl)ccc34)CC2)CC1" ?
Response given: 5.53

Challenge: Then what about the compound "COC(CC(=O)N[C@H]1CC[C@H](CCN2CCN(c3noc4cc(F)c(Cl)cc34)CC2)CC1)OC" ?
Response given: 5.88

Challenge: Then what about the compound "COCC(=O)N[C@H]1CC[C@H](CCN2CCN(c3noc4ccc(F)cc34)CC2)CC1" ?
Response given: 5.73

Challenge: Then what about the compound "C[C@H](O)CC(=O)N[C@H]1CC[C@H](CCN2CCN(c3noc4cc(Cl)ccc34)CC2)CC1" ?
Response given: 6.45

Challenge: Then what about the compound COC(C)CC(=O)N[C@H]1CC[C@H](CCN2CCN(c3noc4cc(Cl)ccc34)CC2)CC1 (stereo partly drawn) ?
Response given: 6.46

Challenge: Then what about the compound "COCCC(=O)N[C@H]1CC[C@H](CCN2CCN(c3noc4cc(F)c(F)cc34)CC2)CC1" ?
Response given: 6.40

Challenge: Then what about the compound "O=C(CC1CCOCC1)N[C@H]1CC[C@H](CCN2CCN(c3noc4cc(Cl)ccc34)CC2)CC1" ?
Response given: 5.97

Challenge: Then what about the compound COC1CCC(C(=O)N[C@H]2CC[C@H](CCN3CCN(c4noc5ccc(F)cc45)CC3)CC2)CC1 (stereo partly drawn) ?
Response given: 5.46

###

target: human dopamine D2 receptor (Homo sapiens, UniProt P14416); construct: expressed in transfected cells; host or cells: HEK-293 EBNA cells, transient transfection; membrane preparation; assay: Radioligand binding ([3H]-spiperone) to membranes of HEK-293 EBNA cells expressing human D2 receptor; details: human D2, 0.7 nM [3H]-spiperone, HEK-293 EBNA membranes, 1 h at RT
assay-readout: Ki (nM)
State the answer as a number, implicitly in nM.

Challenge: Form field: reported Ki of CCC(=O)N[C@H]1CC[C@H](CCN2CCN(c3noc4cc(C)ccc34)CC2)CC1 [Example 99]
Response given: 207

Challenge: Then what about the compound CO[C@H]1CC[C@H](CC(=O)N[C@H]2CC[C@H](CCN3CCN(c4noc5cc(F)c(Cl)cc45)CC3)CC2)CC1 [Example 88] ?
Response given: 11200

Challenge: Then what about the compound COC1(CC(=O)N[C@H]2CC[C@H](CCN3CCN(c4noc5cc(F)c(F)cc45)CC3)CC2)CCOCC1 [Example 62] ?
Response given: 352

Challenge: Then what about the compound COC(CCC(=O)N[C@H]1CC[C@H](CCN2CCN(c3noc4ccc(F)cc34)CC2)CC1)OC [Example 28] ?
Response given: 918

Values from patent US7858630B2
